system: CAKI-1 renal; experiment: NCI-60 one-dose screen, 48 h; settings: 10 µM unless noted
The panel holds about 83,000 compounds, 20% with a hit somewhere; the sample as a whole holds those more often. Active and inactive are the calls of the source. The calls were made as follows: active = growth percent below 10; inactive = the rest.
Choose one outcome from this list and give only that: active, inactive

Known results for molecules:
cpdSmiles | label
CC(C)CCSc1nc(N)nc2nc[nH]c12 | inactive
O=C(Nc1ccc(Oc2ccc(F)cc2)c(Cl)c1)c1cnccn1 | inactive
CN(C)c1cc(NN=C(c2ccc(O)cc2)c2ccc(O)cc2)c([N+](=O)[O-])cc1[N+](=O)[O-] | inactive

Check the results log: what was the call for CC(C)c1ccc(C(=O)Nc2nc3ccc(O)cc3s2)cc1 ?
active

Check the results log: what was the call for Cc1ccc(-n2nc3n(/c2=N\C(=O)NS(=O)(=O)c2ccc(C)cc2)CCN3C2=NCCN2)cc1 ?
inactive

Check the results log: what was the call for CC1=CC[C@@H]2C(C)(C)[C@@H](O)CC[C@@]2(C)[C@@H]1COc1ccc2ccc(=O)oc2c1 ?
inactive

Check the results log: what was the call for CCCCCCCCCCCCCCCCCCNC(=S)N/N=C/c1ccc(OC)c(OC)c1 ?
inactive

Check the results log: what was the call for C=C(C)[C@@H]1CC[C@]2(C)[C@H](CC=C3[C@@H]4[C@@H](C)[C@H](C)CC[C@]4(C(N)=O)CC[C@]32C)[C@@]1(C)CCC#N ?
active

Check the results log: what was the call for CCN1CCN(CC(=O)Nc2nc3ccc(NCc4ccc(Cl)cc4)cc3s2)CC1 ?
inactive
